B1: LINE1-full (parent)
chain: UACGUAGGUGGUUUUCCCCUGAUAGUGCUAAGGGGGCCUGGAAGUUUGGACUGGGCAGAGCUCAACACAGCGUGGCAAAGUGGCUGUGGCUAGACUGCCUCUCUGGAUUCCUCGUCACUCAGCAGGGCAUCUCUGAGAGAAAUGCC

- Variants of: B1
- Test Details: self-cleavage, relative activity (ratio to wild type); higher = more cleavage; in vitro, sequencing; the parent is a self-cleaving ribozyme
Collected self-cleavage values appear next to each entry.

Illustrative cases are given below, each with its answer.
Mut: C95U C118A
self-cleavage: 0.13

Mut: U52A U85C
self-cleavage: 0.2

Mut: A30U A65G
self-cleavage: 0.06

Mut: U12G A59U
self-cleavage: 1.15

Mut: A31U A107G
self-cleavage: 1.28

Mut: A43G G70A
self-cleavage: 0.11

Mut: U45C C120G
self-cleavage: 2.05

Mut: C63U U96C
self-cleavage: 0

[ask] Suppose we examine the variant U85G C113A ; what self-cleavage value has been reported?
[reply] 0.14

[ask] Would you kindly repeat that for C3A A94G ?
[reply] 0.3

[ask] Next record, please: A43G U85C
[reply] 0.2

[ask] Would you kindly repeat that for U96C A136U ?
[reply] 0.15

[ask] Here is the next variant: A50G U96G
[reply] 0.26
